Overview of reported cAMP EC50 across a group of binders:
- ASSAYED_SYSTEM: T1, human GIP receptor (human, UniProt P48546 22-466)
- T1 sequence (looked up): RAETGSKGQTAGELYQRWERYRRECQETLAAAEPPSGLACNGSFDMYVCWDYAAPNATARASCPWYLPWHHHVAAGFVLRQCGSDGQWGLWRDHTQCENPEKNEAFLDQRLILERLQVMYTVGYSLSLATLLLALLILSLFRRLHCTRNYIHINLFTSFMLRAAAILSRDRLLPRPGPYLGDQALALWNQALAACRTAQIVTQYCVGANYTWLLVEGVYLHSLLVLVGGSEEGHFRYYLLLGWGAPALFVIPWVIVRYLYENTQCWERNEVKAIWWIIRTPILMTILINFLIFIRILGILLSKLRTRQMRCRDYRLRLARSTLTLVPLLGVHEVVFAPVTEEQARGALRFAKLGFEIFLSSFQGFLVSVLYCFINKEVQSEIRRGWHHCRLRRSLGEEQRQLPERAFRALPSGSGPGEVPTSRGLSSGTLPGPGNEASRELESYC
- TEST_DESCRIPTION: cell-based or functional assay
A number alone suffices; assume pM.

| BINDER | cAMP EC50 (pM) |
| --- | --- |
| IP268 (Fc fusion) YSEGTFTSDYSKLLEEEAVRLFIEWLVKGPGGGGGSGGGGSGGGGSGGGGSATHTCPPC | 10 |
| IP363 (Fc fusion) YSEGTFTSDYRMLKEEEAVRLFIEWLLAGGGGGGSGGGGSGGGGSGGGGSATHTCPPC | 56 |

Now look at this entry.
Can you look up the measured cAMP EC50 of IP324 (Fc fusion) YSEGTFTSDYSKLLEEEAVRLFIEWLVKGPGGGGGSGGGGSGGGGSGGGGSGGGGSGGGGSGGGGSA for me? 37
